Hi there, I'd appreciate the recorded pIC50 for every entry that follows.
# TARGET_UNDER_TEST: 5-lipoxygenase (Homo sapiens, UniProt P09917)
# Construct: Polymorphonuclear leukocytes were obtained from whole human blood; endogenous in cells
# Sequence (P09917 whole entry): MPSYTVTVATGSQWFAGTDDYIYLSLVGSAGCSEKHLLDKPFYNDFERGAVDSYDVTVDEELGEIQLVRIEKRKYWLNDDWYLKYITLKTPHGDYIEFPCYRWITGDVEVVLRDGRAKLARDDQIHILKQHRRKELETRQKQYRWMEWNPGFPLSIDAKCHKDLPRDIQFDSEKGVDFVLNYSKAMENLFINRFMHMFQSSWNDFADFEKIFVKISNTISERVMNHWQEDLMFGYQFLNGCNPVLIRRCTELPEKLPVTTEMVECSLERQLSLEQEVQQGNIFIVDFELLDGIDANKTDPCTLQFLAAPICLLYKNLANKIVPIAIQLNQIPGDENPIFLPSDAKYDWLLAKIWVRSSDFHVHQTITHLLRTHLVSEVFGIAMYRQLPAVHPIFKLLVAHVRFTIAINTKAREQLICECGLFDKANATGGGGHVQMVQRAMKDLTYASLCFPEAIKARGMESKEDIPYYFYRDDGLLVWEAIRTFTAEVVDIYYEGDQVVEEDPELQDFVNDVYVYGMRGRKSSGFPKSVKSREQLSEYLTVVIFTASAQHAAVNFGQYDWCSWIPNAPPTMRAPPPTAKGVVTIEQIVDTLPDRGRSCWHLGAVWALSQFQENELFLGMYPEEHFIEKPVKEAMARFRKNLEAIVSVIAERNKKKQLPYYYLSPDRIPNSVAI
# EXPERIMENTAL_PROTOCOL: 5-Lipoxygenase Assay (production of 5-HETE from arachidonic acid in polymorphonuclear leukocytes stimulated by A23187)
# EXPERIMENTAL_SETUP: inhibition of production of 5-HETE, human PMN cells, calcium ionophore A23187, 37° C.
Keep in mind that pIC50 stands for -log10 of concentration in molar terms.

Exercise: Quick one: pIC50 of CCCC[C@@H]1S[C@@H](c2cccc(C(=O)c3ccccc3)c2)N(c2ccc(O)cc2)C1=O (relative stereo) ?
Key: 5.19

Exercise: Quick one: pIC50 of CCCC[C@@H]1S[C@H](c2cccc(Oc3ccccc3)c2)N(c2ccc(O)cc2)C1=O (relative stereo) ?
Key: 5.30

Exercise: Quick one: pIC50 of CCCCC1SC(c2cccc(Oc3ccccc3)c2)N(CCCOc2ccc(C(=O)O)cc2)C1=O (stereo not drawn) ?
Key: 5.46

Exercise: Quick one: pIC50 of CCCCC1SC(c2cccc(Oc3ccccc3)c2)N(CCc2ccccn2)C1=O (stereo not drawn) ?
Key: 5.11

Exercise: Quick one: pIC50 of CCCCC1SC(c2cccc(Oc3ccccc3)c2)N(CCc2ccccc2)C1=O (stereo not drawn) ?
Key: 5.00

Reference for the values: patent US5061720A
